Test system: P-gp
METHOD_SUMMARY: Selectivity index, ratio of IC50 for cytotoxicity against mouse L929 cells to EC50 for inhibition of P-gp in human LCC6MDR cells assessed as reversal of paclitaxel resistance
Assay type: toxicity, cell-based
RUN_CONDITIONS: L929 cells (cytotoxicity IC50) and LCC6MDR cells (P-gp EC50), probe paclitaxel, read-out: Selectivity Index
# reported selectivity ratio; entries follow

>>> df
                                chem_smiles  experimental_system        metric_name  meas_value
0  COc1cc(OC)c2c(c1)O[C@H](c1ccc(OC)c(OC)c1)[C@@H](OC(=O)c1ccc(F)c(NC(=O)/C=C/c3cc(OC)c(OC)c(OC)c3)c1)C2                 P-gp  selectivity ratio       > 563

--- query ---
Exam item: Entry "COc1cc(OC)c2c(c1)O[C@@H](c1cc(OC)c(OC)c(OC)c1)[C@H](OC(=O)c1ccc(F)c(NC(=O)c3cc(OC)c(OC)c(OC)c3)c1)C2" : reported selectivity ratio = ?
Marked response: > 741

* * *

Listing of entries alongside the reported EC50.
METHOD_SUMMARY: Reversal of P-glycoprotein mediated drug resistance in human LCC6MDR cells assessed as reversal of paclitaxel resistance measured after 5 days by Cell Titer-Glo luminescence assay
Type: cell-based
RUN_CONDITIONS: 120 h
Just the number in nM, nothing appended.

>>> df
                                chem_smiles  meas_value
0  COc1cc(OC)c2c(c1)O[C@H](c1cc(OC)c(OC)c(OC)c1)[C@H](OC(=O)c1ccc(F)c(NC(=O)c3cc(OC)c(OC)c(OC)c3)c1)C2         214
1  COc1cc(OC)c2c(c1)O[C@H](c1cc(OC)c(OC)c(OC)c1)[C@@H](OC(=O)c1ccc(F)c(NC(=O)c3cc(OC)c(OC)c(OC)c3)c1)C2         140

Exam item: // lookup EC50 for "COc1cc(OC)c2c(c1)O[C@H](c1cc(OC)c(OC)c(OC)c1)[C@H](OC(=O)c1ccc(F)c(NC(=O)c3ccc(OC)c(OC)c3)c1)C2"
Marked response: 159

Exam item: Let us now turn to "COc1cc(OC)c2c(c1)O[C@H](c1ccc(OC)c(OC)c1)[C@@H](OC(=O)c1ccc(F)c(NC(=O)/C=C/c3cc(OC)c(OC)c(OC)c3)c1)C2"
Marked response: 178

Exam item: Proceed to "COc1cc(OC)c2c(c1)O[C@H](c1cc(OC)c(OC)c(OC)c1)[C@@H](OC(=O)c1ccc(F)c(NC(=O)c3ccc(OC)c(OC)c3)c1)C2"
Marked response: 171

Exam item: # repeat for "COc1cc(OC)c2c(c1)O[C@@H](c1cc(OC)c(OC)c(OC)c1)[C@H](OC(=O)c1ccc(F)c(NC(=O)c3cc(OC)c(OC)c(OC)c3)c1)C2"
Marked response: 135
